assay: Plasma concentration versus time of Compound I and metabolite Compound III in patients dosed QD or BID with Form B of Compound II plus fulvestrant; assay type: in vivo, human; settings: human, plasma, oral, 200 mg, 200 mg BID of Form B, Day 1, 2.0 h, Mean; read-out: Compound I Concentration
Value kind: concentration at 2 h

Query :: Requested field: concentration at 2 h. Item: "CC(C)N1CCN(c2ccc(Nc3ncc4cc5n(c4n3)C3(CCCCC3)CNC5=O)nc2)CC1"
Result :: 9.42 ng/mL

###

test: Plasma concentration versus time of Compound I and metabolite Compound III in patients dosed QD or BID with Form B of Compound II plus fulvestrant; format: in vivo, human; details: human, plasma, oral, 650 mg, 650 mg QD of Form B, Day 1, 4.0 h, Mean; read-out: Compound III Concentration
Value kind: concentration at 4 h (ng/mL)
One number for each entry, in ng/mL.

Query :: GET /values?readout=concentration at 4 h&item= "O=C1NCC2(CCCCC2)n2c1cc1cnc(Nc3ccc(N4CCNCC4)cn3)nc12"
Result :: 8.35
